- assay_remarks: Pharmacokinetic analysis in BALB/c mice
- Assay type: in vivo, mouse
- study_conditions: male, BALB/c, mouse, plasma, intravenous, 2 mg/kg, read-out: plasma clearance rate
parameter_measured: clearance (mL/min/kg)
Lab book: enter the figure in mL/min/kg, no units written.

# get_value(readout='clearance', item= O=C1CCC(N2Cc3c(NC(=O)COCCCCOc4ccc(C5CCN(C6=Nn7c(nnc7C(F)(F)F)CC6)CC5)cc4)cccc3C2=O)C(=O)N1 (stereo not drawn) )
24.7

Can you check `Cc1ncsc1-c1ccc(CNC(=O)[C@@H]2C[C@H](O)CN2C(=O)[C@@H](NC(=O)COCCCCOc2ccc(C3CCN(C4=Nn5c(nnc5C(F)(F)F)CC4)CC3)cc2)C(C)(C)C)cc1` next?
6.62

Can you check `Cc1ncsc1-c1ccc(CNC(=O)[C@@H]2C[C@H](O)CN2C(=O)[C@@H](NC(=O)COCCCCCCOc2ccc(C3CCN(C4=Nn5c(nnc5C(F)(F)F)CC4)CC3)cc2)C(C)(C)C)cc1` next?
5.68

###

- assay_remarks: Pharmacokinetic analysis in BALB/c mice
- Assay type: in vivo, mouse
- study_conditions: male, BALB/c, mouse, plasma, PO, 30 mg/kg
parameter_measured: Tmax
Number first, unit second.

# get_value(readout='Tmax', item= `Cc1ncsc1-c1ccc(CNC(=O)[C@@H]2C[C@H](O)CN2C(=O)[C@@H](NC(=O)COCCCCOc2ccc(C3CCN(C4=Nn5c(nnc5C(F)(F)F)CC4)CC3)cc2)C(C)(C)C)cc1` )
1.67 h

###

- System: CWR22Rv1 cells
- assay_remarks: alamarBlue cell viability, CWR22Rv1
- Format: cell-based
- study_conditions: Homo sapiens, CWR22Rv1, 168 h; 7 days treatment, normal hormone condition
parameter_measured: IC50 (µM)
Lab book: enter the figure in µM, no units written.

compound	units_label	IC50
Cc1ncsc1-c1ccc(CNC(=O)[C@@H]2C[C@H](O)CN2C(=O)[C@@H](NC(=O)COCCCCCCOc2ccc(C3CCN(C4=Nn5c(nnc5C(F)(F)F)CC4)CC3)cc2)C(C)(C)C)cc1	µM	6.92
Cc1ncsc1-c1ccc(CNC(=O)[C@@H]2C[C@H](O)CN2C(=O)[C@@H](NC(=O)COCCCCOc2ccc(C3CCN(C4=Nn5c(nnc5C(F)(F)F)CC4)CC3)cc2)C(C)(C)C)cc1	µM	4.13

# get_value(readout='IC50', item= O=C1CCC(N2Cc3c(NC(=O)COCCCCOc4ccc(C5CCN(C6=Nn7c(nnc7C(F)(F)F)CC6)CC5)cc4)cccc3C2=O)C(=O)N1 (stereo not drawn) )
0.071

###

- assay_remarks: Pharmacokinetic analysis in BALB/c mice
- Assay type: in vivo, mouse
- study_conditions: male, BALB/c, mouse, plasma, ip, 10 mg/kg, IP, 10 mg/kg, read-out: Cmax
parameter_measured: Cmax
Number first, unit second.

compound	parameter_measured	reading
O=C1CCC(N2Cc3c(NC(=O)COCCCCOc4ccc(C5CCN(C6=Nn7c(nnc7C(F)(F)F)CC6)CC5)cc4)cccc3C2=O)C(=O)N1 (centres unmarked) [ITRI-126]	Cmax	706 ng/mL

Note: attention shifts to another entry.
# get_value(readout='Cmax', item= Cc1ncsc1-c1ccc(CNC(=O)[C@@H]2C[C@H](O)CN2C(=O)[C@@H](NC(=O)COCCCCOc2ccc(C3CCN(C4=Nn5c(nnc5C(F)(F)F)CC4)CC3)cc2)C(C)(C)C)cc1 [ITRI-90] )
3940 ng/mL

###

- assay_remarks: Pharmacokinetic analysis in BALB/c mice
- Format: in vivo, mouse
- study_conditions: male, BALB/c, mouse, plasma, po, 30 mg/kg, 0-24 h
parameter_measured: AUC(0-t) (ng·h/mL)
Lab book: enter the figure in ng·h/mL, no units written.

# get_value(readout='AUC(0-t)', item= Cc1ncsc1-c1ccc(CNC(=O)[C@@H]2C[C@H](O)CN2C(=O)[C@@H](NC(=O)COCCCCOc2ccc(C3CCN(C4=Nn5c(nnc5C(F)(F)F)CC4)CC3)cc2)C(C)(C)C)cc1 [ITRI-90] )
18000

###

- assay_remarks: Pharmacokinetic analysis in BALB/c mice
- Assay type: in vivo, mouse
- study_conditions: male, BALB/c, mouse, plasma, PO, 30 mg/kg, read-out: BA (bioavailability)
parameter_measured: bioavailability (%)
Lab book: enter the figure in %, no units written.

# get_value(readout='bioavailability', item= Cc1ncsc1-c1ccc(CNC(=O)[C@@H]2C[C@H](O)CN2C(=O)[C@@H](NC(=O)COCCCCOc2ccc(C3CCN(C4=Nn5c(nnc5C(F)(F)F)CC4)CC3)cc2)C(C)(C)C)cc1 [ITRI-90] )
23
